From: the supplement of paper PMC9170038

# Tested on: MS2 coat protein
# measurementNotes: apparent KD of MS2 coat protein; higher = weaker reporter binding
# runConditions: Eterna round: R107; input ligand: theophylline 2 mM
observedProperty: apparent KD of MS2 coat protein (nM)
Answer format: numeric, nM implied, no suffix.

## Input Fill in: apparent KD of MS2 coat protein of AAACGCCACGGAAGGAGCGACAUGAGGAUCACCCAUGUAGAAGUGGCGGAUGCACCCUCCUGUCAGGUAGGUCGCCGUGCGCCAA [XArg-B24] is ___
## Output 29.7

## Input Fill in: apparent KD of MS2 coat protein of CAUUAAUUACGAAGGAGCGUCGAAAAUGGGUAAACAUGAGGAUCACCCAUGUAAAGGGAACGACAGGUAGGUCGCGUAAUUAAUG [AstromonsSSArgB#2] is ___
## Output 230

## Input Fill in: apparent KD of MS2 coat protein of UUAUGAUGUUCCGAUACCAGCCAUGUAGUUCUAACUUAACAUGAGGAUCACCCAUGUACCGGCCCUUGGCAGCGGAUGUGGAUUA [#22Same State - Theophylline B] is ___
## Output 14.8

## Input Fill in: apparent KD of MS2 coat protein of AAAAUCCUAUCUGAGGAUCACCCAGGUGAAGGAGCGCCCGAAAGGGCAGGUAGGUCGCACCUGAGGAUCACCCUGGUAACCUAAA [ArgEX 10 #DoubleMS2 #OpenEnded #AlternativeMS2] is ___
## Output 123

## Input Fill in: apparent KD of MS2 coat protein of CCCAAUUAGAUCUUUGGAAUUUUACUCGAAGGAGCGUCAUAGUAGGCAGGUAGGUCGCGAGACAUGAGGAUCACCCAUGUAGAGA [btbmullin] is ___
## Output 38.5

## Input Fill in: apparent KD of MS2 coat protein of AGAUUCGACACGGCCGCCACUCGUGGUGGAUUACCUAGUGUCGAACAUGAGGAUCACCCAUGUACGAGGACCGGGUGUUGAGUCU [XTryp B #18] is ___
## Output 86
